Could you please report measured Human hepatocyte CLhep Avg for the items listed next?
System: human cryopreserved hepatocytes
procedure.text: Metabolic stability (hepatocytes)
Assay type: in vitro ADME
measurement.parameters: well-stirred model
// units = mL/min/kg; emit number, no label

// returns Human hepatocyte CLhep Avg for CN1C(=O)[C@@H](NC(=O)c2nnc(Cc3ccccc3)[nH]2)COc2ccccc21 [A, reference compound] with human cryopreserved hepatocytes; value = 6.8

// returns Human hepatocyte CLhep Avg for O=C(N[C@@H]1C(=O)Nc2c(F)cc(F)cc2[C@@H]2C[C@H]12)c1nnc(Cc2ccccc2)[nH]1 [Example 83A] with human cryopreserved hepatocytes; value = 1.0

// returns Human hepatocyte CLhep Avg for CN1C(=O)[C@@H](NC(=O)c2nnc(Cc3ccccc3)o2)COc2ccccc21 [B, reference compound] with human cryopreserved hepatocytes; value = 14

// returns Human hepatocyte CLhep Avg for CN1C(=O)[C@@H](NC(=O)c2nnc(Cc3ccccc3)[nH]2)COc2cccnc21 with human cryopreserved hepatocytes; value = 0.8

* * *

Could you please report measured Rat unbound CL for the items listed next?
measurement.parameters: male, Sprague-Dawley Crl:CD(SD), in vivo
// units = mL/min/kg; emit number, no label

According to the records, this compound C[C@H]1Oc2cccnc2N(C)C(=O)[C@H]1NC(=O)c1ncn(Cc2cccc(C#N)c2)n1 [Example 172] displays Rat unbound CL of 65

According to the records, this compound CN1C(=O)[C@@H](NC(=O)c2cc(C3(c4ccccc4)CC3)on2)COc2ccccc21 [Example 8] displays Rat unbound CL of 3700

According to the records, this compound CN1C(=O)[C@@H](NC(=O)c2nnc(C3(c4ccccc4)CC3)o2)COc2cccnc21 [Example 66] displays Rat unbound CL of 113

According to the records, this compound CN1C(=O)[C@@H](NC(=O)c2ncn(Cc3cccc(C#N)c3)n2)COc2cccnc21 [Example 171] displays Rat unbound CL of 32

* * *

system.tested: GST-hRIPK1 (8-327) (Homo sapiens (Human), UniProt Q13546)
Sequence (Q13546 8-327): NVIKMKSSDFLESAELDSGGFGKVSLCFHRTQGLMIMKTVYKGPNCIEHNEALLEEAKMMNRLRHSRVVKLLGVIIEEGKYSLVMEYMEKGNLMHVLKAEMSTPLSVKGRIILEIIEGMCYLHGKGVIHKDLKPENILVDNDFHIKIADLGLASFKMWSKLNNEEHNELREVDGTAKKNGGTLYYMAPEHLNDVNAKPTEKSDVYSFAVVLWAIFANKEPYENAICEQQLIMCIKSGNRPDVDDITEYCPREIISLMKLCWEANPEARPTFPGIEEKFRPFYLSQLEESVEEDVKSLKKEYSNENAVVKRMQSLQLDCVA
procedure.text: Fluorescent Polarization Binding (FP Binding) assay
measurement.parameters: 10 nM GST-hRIPK1 (8-327), 5 nM fluorescent labeled ligand; read-out: FP IC50
Could you please report measured IC50 for the items listed next?

According to the records, this compound CN1C(=O)[C@@H](NC(=O)c2nnc(Cc3ccccc3)o2)CCc2ccccc21 displays IC50 of 0.1 to 1000 nM

According to the records, this compound CN1C(=O)[C@@H](NC(=O)c2nn(Cc3ncccn3)cc2F)COc2ccccc21 displays IC50 of 0.1 to 1000 nM

According to the records, this compound CN1C(=O)[C@@H](NC(=O)c2cn(C3(c4ccccc4)CC3)nn2)COc2ccccc21 displays IC50 of 0.1 to 1000 nM

According to the records, this compound CN1C(=O)[C@H](NC(=O)c2nnc(Cc3ccccc3)[nH]2)[C@H]2C[C@H]2c2ccccc21 [Example 67B] displays IC50 of > 3000 nM

According to the records, this compound CN1C(=O)[C@H](NC(=O)c2nnc(Cc3ccccc3)[nH]2)[C@@H]2C[C@@H]2c2cccnc21 [Example 75B] displays IC50 of > 3000 nM

According to the records, this compound O=C(N[C@H]1CCc2ccccc2-n2cnnc21)c1nnc(Cc2ccccc2)[nH]1 [Example 69A] displays IC50 of 0.1 to 1000 nM

According to the records, this compound CN1C(=O)[C@@H](NC(=O)c2nc3cccc(-c4ccccc4)c3s2)COc2ccccc21 displays IC50 of 0.1 to 1000 nM

According to the records, this compound CN1C(=O)[C@H](NC(=O)c2cc(Cc3ccccc3)[nH]n2)[C@@H]2C[C@@H]2c2cccnc21 [Example 80B] displays IC50 of > 3000 nM

According to the records, this compound CN1C(=O)[C@@H](NC(=O)c2nn(Cc3ccccn3)cc2F)COc2cccnc21 displays IC50 of 0.1 to 1000 nM

According to the records, this compound CN1C(=O)[C@@H](NC(=O)c2nnc(C3(c4ccccc4)CC3)o2)COc2cccnc21 displays IC50 of 0.1 to 1000 nM

According to the records, this compound CN1C(=O)[C@@H](NC(=O)c2cc(Cc3ccccc3)[nH]n2)[C@H]2C[C@H]2c2ccccc21 [Example 60A] displays IC50 of 0.1 to 1000 nM

According to the records, this compound O=C(N[C@H]1C(=O)Nc2c(F)cc(F)cc2[C@H]2C[C@H]21)c1nnc(Cc2ccccc2)[nH]1 [Example 83B] displays IC50 of 1000 to 10000 nM

According to the records, this compound CN1C(=O)[C@@H](NC(=O)c2nn(Cc3ccc(F)cn3)cc2F)COc2ccccc21 displays IC50 of 0.1 to 1000 nM

According to the records, this compound CN1C(=O)[C@@H](NC(=O)c2cc(C3(c4ccccc4)CC3)[nH]n2)COc2cccnc21 displays IC50 of 0.1 to 1000 nM

According to the records, this compound O=C(N[C@@H]1C(=O)Nc2c(F)cc(F)cc2[C@@H]2C[C@H]12)c1nnc(Cc2ccccc2)o1 [Example 89B] displays IC50 of 0.1 to 1000 nM

According to the records, this compound CN1C(=O)[C@@H](NC(=O)c2nn(Cc3ccccc3)cc2F)COc2cccnc21 displays IC50 of 0.1 to 1000 nM

According to the records, this compound CN1C(=O)C(NC(=O)c2cc(Cc3ccccc3)on2)[C@@H]2C[C@@H]2c2ccccc21 (stereo in doubt) displays IC50 of > 10000 nM

According to the records, this compound O=C(N[C@H]1COc2ccccc2-n2ccnc21)c1nnc(Cc2ccccc2)[nH]1 [Example 68A] displays IC50 of 0.1 to 1000 nM

According to the records, this compound O=C(N[C@H]1COc2cccnc2NC1=O)c1cc(C2(c3ccccc3)CC2)on1 displays IC50 of 0.1 to 1000 nM

According to the records, this compound CN1C(=O)C(NC(=O)c2cc(Cc3ccccc3)on2)CC(F)c2ccccc21 (stereo not shown) displays IC50 of 0.1 to 1000 nM

According to the records, this compound C[C@H]1Oc2cccnc2N(C)C(=O)[C@H]1NC(=O)c1nnc(Cc2ccccc2)s1 displays IC50 of 0.1 to 1000 nM

According to the records, this compound Cc1nc(C(=O)N[C@@H]2C(=O)N(C)c3nccnc3[C@@H]3C[C@H]23)cn1Cc1ccccc1 displays IC50 of 0.1 to 1000 nM

According to the records, this compound CN1C(=O)[C@@H](NC(=O)c2noc(Cc3ccccc3)n2)COc2cccnc21 displays IC50 of 0.1 to 1000 nM

According to the records, this compound CN1C(=O)[C@@H](NC(=O)c2nnc(Cc3ccccc3)[nH]2)[C@@H]2C[C@@H]2c2ccccc21 [Example 67A] displays IC50 of 0.1 to 1000 nM

According to the records, this compound C[C@H]1Oc2cccnc2N(C)C(=O)[C@H]1NC(=O)c1noc(Cc2ccccc2)n1 displays IC50 of 0.1 to 1000 nM

According to the records, this compound CN1C(=O)[C@@H](NC(=O)c2nn(Cc3cocn3)cc2F)COc2cccnc21 displays IC50 of 0.1 to 1000 nM

According to the records, this compound CN1C(=O)[C@@H](NC(=O)c2coc(C3(c4ccccc4)CC3)n2)COc2ccccc21 displays IC50 of 0.1 to 1000 nM

According to the records, this compound CN1C(=O)[C@@H](NC(=O)c2nc3cccc(-c4ccccc4F)c3s2)COc2ccccc21 displays IC50 of 0.1 to 1000 nM

According to the records, this compound CN1C(=O)[C@@H](NC(=O)c2nnc(Cc3ccccc3)[nH]2)[C@H]2C[C@H]2c2cccnc21 [Example 75A] displays IC50 of 0.1 to 1000 nM

According to the records, this compound O=C(N[C@@H]1COc2ccccc2-n2ccnc21)c1nnc(Cc2ccccc2)[nH]1 [Example 68B] displays IC50 of > 3000 nM

According to the records, this compound O=C(N[C@H]1C(=O)Nc2c(F)cc(F)cc2[C@H]2C[C@H]21)c1nnc(Cc2ccccc2)o1 [Example 89A] displays IC50 of 1000 to 10000 nM
